# Target or system: human VWF (human)
# Sequence (P04275 whole entry): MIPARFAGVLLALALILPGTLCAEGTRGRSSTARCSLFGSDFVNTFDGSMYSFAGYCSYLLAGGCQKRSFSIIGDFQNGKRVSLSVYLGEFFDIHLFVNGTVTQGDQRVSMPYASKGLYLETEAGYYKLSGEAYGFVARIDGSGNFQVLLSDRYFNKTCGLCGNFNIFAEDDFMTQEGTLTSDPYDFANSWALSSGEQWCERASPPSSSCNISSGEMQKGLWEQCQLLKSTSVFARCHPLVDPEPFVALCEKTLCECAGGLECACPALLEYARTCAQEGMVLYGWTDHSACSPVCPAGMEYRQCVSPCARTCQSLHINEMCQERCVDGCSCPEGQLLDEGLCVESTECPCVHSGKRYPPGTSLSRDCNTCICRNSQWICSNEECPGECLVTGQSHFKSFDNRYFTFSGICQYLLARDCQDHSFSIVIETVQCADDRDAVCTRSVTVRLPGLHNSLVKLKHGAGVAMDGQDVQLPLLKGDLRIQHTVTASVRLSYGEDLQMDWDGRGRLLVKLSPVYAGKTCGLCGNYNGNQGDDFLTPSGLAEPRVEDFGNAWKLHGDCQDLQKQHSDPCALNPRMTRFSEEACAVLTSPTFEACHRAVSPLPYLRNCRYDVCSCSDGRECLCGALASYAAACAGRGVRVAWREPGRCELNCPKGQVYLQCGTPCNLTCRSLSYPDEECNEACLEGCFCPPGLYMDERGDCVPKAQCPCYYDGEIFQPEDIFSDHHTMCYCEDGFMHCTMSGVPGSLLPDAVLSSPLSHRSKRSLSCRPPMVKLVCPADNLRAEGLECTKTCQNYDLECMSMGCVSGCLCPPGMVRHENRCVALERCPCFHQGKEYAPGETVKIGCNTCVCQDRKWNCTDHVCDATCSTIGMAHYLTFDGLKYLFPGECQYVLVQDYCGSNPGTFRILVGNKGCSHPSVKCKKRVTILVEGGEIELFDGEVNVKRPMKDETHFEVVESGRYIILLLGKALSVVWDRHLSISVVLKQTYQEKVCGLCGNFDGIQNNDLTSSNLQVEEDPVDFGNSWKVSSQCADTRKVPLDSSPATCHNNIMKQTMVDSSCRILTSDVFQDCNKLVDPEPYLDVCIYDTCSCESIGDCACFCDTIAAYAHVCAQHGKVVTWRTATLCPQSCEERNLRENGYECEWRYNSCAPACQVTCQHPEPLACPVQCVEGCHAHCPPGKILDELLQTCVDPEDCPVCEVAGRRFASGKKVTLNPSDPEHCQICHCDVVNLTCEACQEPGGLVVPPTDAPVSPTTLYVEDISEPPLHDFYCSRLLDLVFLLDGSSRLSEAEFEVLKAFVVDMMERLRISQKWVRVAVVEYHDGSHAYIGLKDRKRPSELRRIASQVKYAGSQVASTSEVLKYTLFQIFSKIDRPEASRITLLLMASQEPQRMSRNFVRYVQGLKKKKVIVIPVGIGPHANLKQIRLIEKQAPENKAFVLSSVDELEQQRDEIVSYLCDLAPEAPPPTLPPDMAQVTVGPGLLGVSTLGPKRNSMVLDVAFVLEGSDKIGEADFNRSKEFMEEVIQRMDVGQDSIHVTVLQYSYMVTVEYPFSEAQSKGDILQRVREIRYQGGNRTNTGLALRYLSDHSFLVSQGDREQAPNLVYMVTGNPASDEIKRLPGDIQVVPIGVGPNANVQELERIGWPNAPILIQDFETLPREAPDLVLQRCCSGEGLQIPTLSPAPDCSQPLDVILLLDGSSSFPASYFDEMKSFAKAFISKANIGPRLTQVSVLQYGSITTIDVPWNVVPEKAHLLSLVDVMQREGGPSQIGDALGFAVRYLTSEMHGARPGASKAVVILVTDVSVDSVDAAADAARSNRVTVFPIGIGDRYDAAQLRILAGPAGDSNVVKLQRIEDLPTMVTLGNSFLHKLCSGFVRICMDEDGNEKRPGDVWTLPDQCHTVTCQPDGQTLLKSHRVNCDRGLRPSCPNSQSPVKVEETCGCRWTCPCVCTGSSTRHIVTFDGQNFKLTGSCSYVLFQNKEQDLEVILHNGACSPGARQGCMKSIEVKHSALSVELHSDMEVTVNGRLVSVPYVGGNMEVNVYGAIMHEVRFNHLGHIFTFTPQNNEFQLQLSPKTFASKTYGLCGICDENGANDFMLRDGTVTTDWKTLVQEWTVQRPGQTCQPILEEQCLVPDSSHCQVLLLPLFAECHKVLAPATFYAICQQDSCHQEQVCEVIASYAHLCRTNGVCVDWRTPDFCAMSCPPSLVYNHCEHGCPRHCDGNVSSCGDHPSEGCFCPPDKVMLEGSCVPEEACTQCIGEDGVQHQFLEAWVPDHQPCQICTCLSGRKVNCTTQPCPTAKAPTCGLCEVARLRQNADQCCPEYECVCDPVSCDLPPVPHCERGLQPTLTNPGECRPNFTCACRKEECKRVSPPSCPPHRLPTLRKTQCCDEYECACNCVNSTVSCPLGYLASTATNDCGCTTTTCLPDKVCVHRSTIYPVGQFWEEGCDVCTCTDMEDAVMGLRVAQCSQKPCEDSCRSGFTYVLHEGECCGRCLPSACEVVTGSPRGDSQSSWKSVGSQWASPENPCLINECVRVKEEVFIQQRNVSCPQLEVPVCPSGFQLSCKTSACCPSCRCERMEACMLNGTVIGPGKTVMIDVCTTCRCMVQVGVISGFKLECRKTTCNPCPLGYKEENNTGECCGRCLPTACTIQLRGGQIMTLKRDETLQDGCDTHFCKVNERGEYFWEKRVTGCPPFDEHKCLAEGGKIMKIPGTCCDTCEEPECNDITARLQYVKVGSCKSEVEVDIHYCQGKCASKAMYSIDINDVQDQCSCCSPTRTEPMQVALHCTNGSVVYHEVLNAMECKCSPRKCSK
# Test details: ELISA
Property: EC50 (µg/mL)
Give a bare numeral; the unit µg/mL is implied.

{"columns": ["Binder", "EC50, µg/mL"],
 "data": [
  ["25B05_H2-L2 (antibody, V domains shown) VH: QVQLVQSGAEVKKPGASVKVSCKASGYTFTDYFMNWVRQAPGQRLEWMGVINPHNGGTSYSQKFQGRVTITVDKSSSTAYMELSSLRSEDTAVYYCARRPLGSDYWGQGTTVTVSS VL: DIVMTQSPSSVSASVGDRVTITCKASQNVGTAVAWYQQKPGKAPKLLIYSASSRYTGVPSRFSGSGSGTDFTLTISSLQPEDFATYYCQQYSSYPLTFGQGTKLEIK", 0.0564]
]}

Query block: // lookup EC50 for 25B05_H3-L4 (antibody, V domains shown) VH: EVQLVQSGAEVKKPGASVKVSCKASGYTFTDYFMNWVRQAPGQRLEWMGVINPHNGGTSYSQKFQGRVTITVDKSSSTAYMELSSLRSEDTAVYYCARRPLGSDYWGQGTTVTVSS VL: DIVMTQSPSSVSASVGDRVTITCKASQNVGTAVAWYQQKPGKAPKLLIYSASSRYTEVPDRFSGSGSGTDFTLTISSLQPEDFATYYCQQYSSYPLTFGQGTKLEIK
Result block: 0.0379

Query block: How about 25B05_H2-L4 (antibody, V domains shown) VH: QVQLVQSGAEVKKPGASVKVSCKASGYTFTDYFMNWVRQAPGQRLEWMGVINPHNGGTSYSQKFQGRVTITVDKSSSTAYMELSSLRSEDTAVYYCARRPLGSDYWGQGTTVTVSS VL: DIVMTQSPSSVSASVGDRVTITCKASQNVGTAVAWYQQKPGKAPKLLIYSASSRYTEVPDRFSGSGSGTDFTLTISSLQPEDFATYYCQQYSSYPLTFGQGTKLEIK ?
Result block: 0.0312

Query block: Same read-out for 25B05_H4-L1 (antibody, V domains shown) VH: EVQLVQSGAEVKKPGASVKVSCKASGYTFTDYFMNWVRQAPGQRLEWMGVINPHNGGTSYSQKFQGRVTLTVDKSSSTAYMELSSLRSEDTAVYYCARRPLGSDYWGQGTTVTVSS VL: DIQMTQSPSSVSASVGDRVTITCKASQNVGTAVAWYQQKPGKAPKLLIYSASSRYTGVPSRFSGSGSGTDFTLTISSLQPEDFATYYCQQYSSYPLTFGQGTKLEIK ?
Result block: 0.0385

Query block: Param item: 33D03_par (antibody, V domains shown) VH: EVQLQQSRPVLVKPGASVKMSCKASGYTFTDYYLNWVKQSPGKRLEWIGIINPYNGGTNYNQRFKGKATLTVDKSSSTAYMELNSLTSEDSAVYFCASEGLRTWFTYWGQGTLVTVSA VL: DIVMTQSPSSLSVSAGEKVTMSCKSSQSLSNSGNQKIYLAWYQQKPGQPPKLLIYGASSRESGVPDRFTGSGSEIDFTLTISSVQAEDLAVYYCQNDHSHPFTFGSGTKLEIK
Result block: 0.0498
